# measurement.description: Cytotoxicity assay, HEK293
# Type: cell-based
# condition: HEK293 cells; human embryonic kidney cells
Give measured IC50 for each item. Keep answers brief.

Assign IC50 to the following record: O=C(Nc1ccc(O)cc1)C(S)Cc1ccccc1 (centres unmarked)
> 100 µM

Given O=C(Nc1nc2ccccc2s1)C(S)Cc1ccccc1 (centres unmarked) , respond with its IC50.
> 100 µM

====

Record form. Attribute: pIC50. Fill in for each entry.
# target.or.system: LasB (Pseudomonas aeruginosa, UniProt Q02RJ6)
# Sequence (Q02RJ6 198-498): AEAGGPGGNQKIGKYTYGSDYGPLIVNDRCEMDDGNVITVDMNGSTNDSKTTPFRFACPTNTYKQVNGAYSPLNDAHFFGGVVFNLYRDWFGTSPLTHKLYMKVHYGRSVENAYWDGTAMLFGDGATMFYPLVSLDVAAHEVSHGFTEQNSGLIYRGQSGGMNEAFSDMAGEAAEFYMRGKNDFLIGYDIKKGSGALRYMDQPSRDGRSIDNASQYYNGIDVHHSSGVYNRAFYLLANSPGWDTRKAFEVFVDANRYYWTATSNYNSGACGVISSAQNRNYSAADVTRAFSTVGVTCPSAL
# measurement.description: LasB inhibition assay (FRET-based, in vitro)
Bear in mind: pIC50 is minus log10 of a mol/L concentration; give just that figure.

Identify measured pIC50 corresponding to O=C(Nc1cccnc1)C(S)Cc1ccccc1 (stereo not drawn)
5.92

Could you please provide reported pIC50 for O=C(Nc1ccc([N+](=O)[O-])cc1)C(S)Cc1ccccc1 (stereo not drawn) ? Thanks!
6.00

Report pIC50 for COC(=O)c1ccsc1NC(=O)C(S)Cc1ccccc1 (stereo not drawn)
5.10

Return pIC50 (reported value) for this compound: O=C(Nc1nc2ccc(Cl)cc2s1)C(S)Cc1ccccc1 (stereo not drawn)
5.62

Given O=C(Nc1ccccc1)C(S)Cc1ccc(Cl)cc1 (stereo not drawn) , respond with its pIC50.
5.96

Consider the compound O=C(Nc1ccccc1)C(S)Cc1ccc(O)cc1 (stereo not drawn) and give its recorded pIC50.
5.13

Consider the compound COc1ccc(NC(=O)C(S)Cc2ccccc2)cc1 (stereo not drawn) and give its recorded pIC50.
6.15

Read off the recorded pIC50 for O=C(Nc1ccccn1)C(S)Cc1ccccc1 (stereo not drawn)
5.51

Read off the recorded pIC50 for O=C(Nc1nccs1)C(S)Cc1ccccc1 (stereo not drawn)
5.80

// Input: O=C(Nc1ccncc1)C(S)Cc1ccccc1 (stereo not drawn) . Output its pIC50 only.
5.31

Query pIC50 for Cc1ccc(CC(S)C(=O)Nc2ccccc2)cc1 (stereo not drawn)
5.55

Determine its reported pIC50: COc1ccc2nc(NC(=O)C(S)Cc3ccccc3)sc2c1 (stereo not drawn)
6.00

Look up and report measured pIC50 for this entry: O=C(Nc1ccccc1)C(S)Cc1ccc(O)c([N+](=O)[O-])c1 (stereo not drawn)
5.60

Give the measured pIC50 for O=C(Nc1nc2ccccc2s1)C(S)Cc1ccccc1 (stereo not drawn)
6.15

Quickly give me recorded pIC50 for O=C(Nc1ccc(O)cc1)C(S)Cc1ccccc1 (stereo not drawn)
6.22

====

Please go through the items and note down their pIC50.
# pIC50 is unitless: minus log10 of the molar concentration; print number only

Supply pIC50 measured with ADAM17 (Homo sapiens) for COc1ccc(NC(=O)C(S)Cc2ccccc2)cc1 (stereo not drawn) .
Sequence (P78536 215-824): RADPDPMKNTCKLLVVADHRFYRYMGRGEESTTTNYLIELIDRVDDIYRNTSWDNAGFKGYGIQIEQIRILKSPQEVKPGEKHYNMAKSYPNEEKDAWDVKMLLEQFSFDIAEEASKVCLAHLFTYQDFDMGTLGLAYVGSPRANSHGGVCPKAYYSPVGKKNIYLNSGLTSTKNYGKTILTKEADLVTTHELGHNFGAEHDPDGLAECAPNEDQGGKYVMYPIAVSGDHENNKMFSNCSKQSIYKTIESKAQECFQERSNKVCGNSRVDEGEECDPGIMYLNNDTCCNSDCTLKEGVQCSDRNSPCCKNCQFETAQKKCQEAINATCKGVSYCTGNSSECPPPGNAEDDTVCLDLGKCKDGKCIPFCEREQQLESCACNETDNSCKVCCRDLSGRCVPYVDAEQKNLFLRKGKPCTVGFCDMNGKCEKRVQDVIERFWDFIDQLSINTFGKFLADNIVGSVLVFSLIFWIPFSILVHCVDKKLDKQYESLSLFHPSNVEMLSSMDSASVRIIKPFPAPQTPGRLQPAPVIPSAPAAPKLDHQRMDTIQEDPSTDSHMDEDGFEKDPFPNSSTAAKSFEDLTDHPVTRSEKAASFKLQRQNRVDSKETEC
5.39

Fill in: pIC50 on ADAM17 (Homo sapiens), entry O=C(Nc1ccc(O)cc1)C(S)Cc1ccccc1 (stereo not drawn)
5.64

Look up and report measured pIC50 (ADAM17 (Homo sapiens)) for the following molecule: O=C(Nc1nc2ccccc2s1)C(S)Cc1ccccc1 (stereo not drawn)
4.98

====

# target.or.system: ColH-PD (Hathewaya histolytica)
# Sequence (Q46085 331-721 limits assumed): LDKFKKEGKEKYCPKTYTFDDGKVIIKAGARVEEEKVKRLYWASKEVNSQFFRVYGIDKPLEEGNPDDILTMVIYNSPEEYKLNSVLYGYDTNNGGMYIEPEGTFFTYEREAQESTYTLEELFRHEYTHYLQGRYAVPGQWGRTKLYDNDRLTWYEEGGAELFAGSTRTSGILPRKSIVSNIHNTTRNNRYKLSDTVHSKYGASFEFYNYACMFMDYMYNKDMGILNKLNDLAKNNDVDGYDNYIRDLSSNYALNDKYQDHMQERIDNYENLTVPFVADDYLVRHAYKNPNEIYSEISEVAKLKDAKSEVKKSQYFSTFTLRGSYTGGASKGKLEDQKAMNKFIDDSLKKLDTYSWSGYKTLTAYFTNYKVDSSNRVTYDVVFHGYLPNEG
# measurement.description: biochemical
# Design: species or system C. histolyticum
# condition: read-out: % inh. of ColH-PD @1µM
property.label: inhibition at 1 µM (%)
Response body: numeric value in %, unit text excluded.

Output measured inhibition at 1 µM for this item: O=C(Nc1nccs1)C(S)Cc1ccccc1 (centres unmarked) [Compound 18]
34

Check the records and state inhibition at 1 µM for O=C(Nc1ccc([N+](=O)[O-])cc1)C(S)Cc1ccccc1 (centres unmarked) [Compound 11]
88

Report inhibition at 1 µM for O=C(Nc1ccccc1)C(S)Cc1ccc(O)c([N+](=O)[O-])c1 (centres unmarked) [Compound 16]
74

Consider the molecule Cc1ccc(CC(S)C(=O)Nc2ccccc2)cc1 (centres unmarked) [Compound 14] . State its measured inhibition at 1 µM.
69

Given the molecule O=C(Nc1ccccc1)C(S)Cc1ccc(O)cc1 (centres unmarked) [Compound 15] , write its reported inhibition at 1 µM.
63

====

# target.or.system: MMP-8 (Homo sapiens, UniProt P22894)
# Sequence (P22894 101-467): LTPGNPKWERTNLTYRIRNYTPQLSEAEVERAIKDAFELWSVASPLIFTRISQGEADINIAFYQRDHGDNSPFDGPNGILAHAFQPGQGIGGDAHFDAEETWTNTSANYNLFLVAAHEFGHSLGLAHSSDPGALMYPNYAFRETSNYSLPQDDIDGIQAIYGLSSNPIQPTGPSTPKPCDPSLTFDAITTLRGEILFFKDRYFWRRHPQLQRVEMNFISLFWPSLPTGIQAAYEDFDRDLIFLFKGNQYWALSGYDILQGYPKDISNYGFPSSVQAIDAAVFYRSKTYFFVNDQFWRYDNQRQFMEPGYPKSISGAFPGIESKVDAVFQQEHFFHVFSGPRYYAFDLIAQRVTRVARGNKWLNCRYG
# measurement.description: Human off-target inhibition assay, MMP-8
# Format: biochemical
property.label: inhibition at 100 µM

Write down the reported inhibition at 100 µM (system: MMP-8 (Homo sapiens, UniProt P22894)) of COc1ccc(NC(=O)C(S)Cc2ccccc2)cc1 (stereo not shown)
12%

Report inhibition at 100 µM on MMP-8 (Homo sapiens, UniProt P22894) for this entry: O=C(Nc1ccc(O)cc1)C(S)Cc1ccccc1 (stereo not shown)
19%

Look up and report inhibition at 100 µM, with MMP-8 (Homo sapiens, UniProt P22894) as system, for Cc1ccc(NC(=O)C(S)Cc2ccccc2)cc1 (stereo not shown)
< 10%

Name the recorded inhibition at 100 µM of O=C(Nc1nc2ccccc2s1)C(S)Cc1ccccc1 (stereo not shown) , assay system MMP-8 (Homo sapiens, UniProt P22894).
< 10%
